Molecular target: T1, cynomolgus BLyS (full length, arginine to histidine at position 132) on CHO-K1 cells (cynomolgus, UniProt Q9Y275 1-285 (human entry))
T1 construct: also called cyno BLyS; CHO-K1 cynoBLyS
T1 chain: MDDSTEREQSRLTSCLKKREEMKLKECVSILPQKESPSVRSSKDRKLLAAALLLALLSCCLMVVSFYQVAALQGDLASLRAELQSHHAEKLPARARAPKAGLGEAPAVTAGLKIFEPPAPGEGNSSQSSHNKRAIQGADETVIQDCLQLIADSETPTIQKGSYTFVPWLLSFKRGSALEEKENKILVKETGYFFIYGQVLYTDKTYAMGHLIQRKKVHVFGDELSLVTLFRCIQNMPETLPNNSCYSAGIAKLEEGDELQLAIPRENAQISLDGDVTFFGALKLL
Assay: flow cytometry, CHO-K1 cynoBLyS cells, antibody 66.7 nM
binders and their reported MFI
Write down the numeric answer in MFI and omit the unit.

1. 8E7D9C7F5 (antibody, V domains shown, Mouse hybridoma monoclonal antibody purified on Protein G) VH: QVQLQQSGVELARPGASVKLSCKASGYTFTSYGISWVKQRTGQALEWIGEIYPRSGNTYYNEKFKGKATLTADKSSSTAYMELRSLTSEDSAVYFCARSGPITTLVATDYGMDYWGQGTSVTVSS VL: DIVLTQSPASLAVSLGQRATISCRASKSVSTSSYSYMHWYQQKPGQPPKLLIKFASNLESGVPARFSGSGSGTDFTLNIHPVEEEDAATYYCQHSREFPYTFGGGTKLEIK: 1170
2. 67A2E1D10 (antibody, V domains shown, Mouse hybridoma monoclonal antibody purified on Protein G) VH: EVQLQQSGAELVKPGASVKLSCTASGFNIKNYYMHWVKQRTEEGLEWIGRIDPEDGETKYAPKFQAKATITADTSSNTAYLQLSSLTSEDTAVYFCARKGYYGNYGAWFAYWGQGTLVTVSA VL: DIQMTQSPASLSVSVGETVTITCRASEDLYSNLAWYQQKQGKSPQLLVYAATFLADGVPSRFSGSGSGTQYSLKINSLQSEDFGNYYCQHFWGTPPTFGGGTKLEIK: 842

Let's switch to this binder now.
Q. Output MFI of 35E6F7C3 (antibody, V domains shown, Mouse hybridoma monoclonal antibody purified on Protein G) VH: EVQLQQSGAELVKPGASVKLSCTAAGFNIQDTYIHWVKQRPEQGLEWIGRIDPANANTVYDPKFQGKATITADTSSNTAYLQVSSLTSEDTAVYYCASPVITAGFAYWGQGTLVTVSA VL: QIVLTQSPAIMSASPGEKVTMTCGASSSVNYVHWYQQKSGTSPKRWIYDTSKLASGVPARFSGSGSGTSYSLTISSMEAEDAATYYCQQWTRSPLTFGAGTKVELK
A. 1130
